# testTarget: Substance-P receptor (Cavia porcellus)
# testDetails: Antagonist activity at NK1 receptor in guinea pig ileum assessed as inhibition of substance P-induced muscle contraction in presence of naloxone
# Format: tissue-based
Non-standard residues stand in square brackets, D forms with d. Residues, ends and D or L forms follow the SMILES beside them. *: point of attachment. OBzl(3,5-(CF3)2) = FC(F)(F)c1cc(CO*)cc(C(F)(F)F)c1; Phe(4-Cl) = N[C@@H](Cc1ccc(Cl)cc1)C(=O)O; Phe(4-F) = N[C@@H](Cc1ccc(F)cc1)C(=O)O; Nle = CCCC[C@H](N)C(=O)O; βAla = NCCC(=O)O
propertyLabel: log10(Ke) (log10 of the value in nM)

{"compound": "C[C@@H](NC(=O)[C@@H](N)Cc1ccc(O)cc1)C(=O)NCC(=O)N[C@@H](Cc1c[nH]c2ccccc12)C(=O)OCc1cc(C(F)(F)F)cc(C(F)(F)F)c1 (H-Y[dA]GW-{OBzl(3,5-(CF3)2)})", "observedMeasurement": 0.70}
{"compound": "C[C@@H](NC(=O)[C@@H](N)Cc1ccc(O)cc1)C(=O)NCC(=O)N[C@@H](Cc1ccccc1)C(=O)N[C@@H](Cc1c[nH]c2ccccc12)C(=O)OCc1cc(C(F)(F)F)cc(C(F)(F)F)c1 (H-Y[dA]GFW-{OBzl(3,5-(CF3)2)})", "observedMeasurement": 1.58}
{"compound": "C[C@@H](NC(=O)[C@@H](N)Cc1ccc(O)cc1)C(=O)NCC(=O)N[C@@H](Cc1ccccc1)C(=O)NCCC(=O)N[C@@H](Cc1c[nH]c2ccccc12)C(=O)OCc1cc(C(F)(F)F)cc(C(F)(F)F)c1 (H-Y[dA]GF[βAla]W-{OBzl(3,5-(CF3)2)})", "observedMeasurement": 2.40}
{"compound": "CCCC[C@H](NC(=O)[C@H](Cc1ccccc1)NC(=O)CNC(=O)[C@@H](C)NC(=O)[C@@H](N)Cc1ccc(O)cc1)C(=O)N[C@@H](Cc1c[nH]c2ccccc12)C(=O)OCc1cc(C(F)(F)F)cc(C(F)(F)F)c1 (H-Y[dA]GF[Nle]W-{OBzl(3,5-(CF3)2)})", "observedMeasurement": 1.11}
{"compound": "Cc1cc(O)cc(C)c1C[C@H](N)C(=O)N[C@H](C)C(=O)N[C@@H](Cc1c[nH]c2ccccc12)C(=O)OCc1cc(C(F)(F)F)cc(C(F)(F)F)c1", "observedMeasurement": 2.04}
{"compound": "Cc1cc(O)cc(C)c1C[C@H](N)C(=O)N[C@H](C)C(=O)N[C@@H](Cc1c[nH]c2ccccc12)C(=O)NCc1cc(C(F)(F)F)cc(C(F)(F)F)c1", "observedMeasurement": 1.34}
{"compound": "C[C@@H](NC(=O)[C@@H](N)Cc1ccc(O)cc1)C(=O)NCC(=O)N[C@@H](Cc1ccc(F)cc1)C(=O)NCC(=O)N[C@@H](Cc1c[nH]c2ccccc12)C(=O)OCc1cc(C(F)(F)F)cc(C(F)(F)F)c1 (H-Y[dA]G[Phe(4-F)]GW-{OBzl(3,5-(CF3)2)})", "observedMeasurement": 1.00}
{"compound": "C[C@@H](NC(=O)[C@@H](N)Cc1ccc(O)cc1)C(=O)NCC(=O)N[C@@H](Cc1ccc(Cl)cc1)C(=O)NCC(=O)N[C@@H](Cc1c[nH]c2ccccc12)C(=O)OCc1cc(C(F)(F)F)cc(C(F)(F)F)c1 (H-Y[dA]G[Phe(4-Cl)]GW-{OBzl(3,5-(CF3)2)})", "observedMeasurement": 1.48}
{"compound": "C[C@@H](NC(=O)[C@@H](N)Cc1ccc(O)cc1)C(=O)NCC(=O)N[C@@H](Cc1ccc(F)cc1)C(=O)OCc1cc(C(F)(F)F)cc(C(F)(F)F)c1", "observedMeasurement": 1.72}
{"compound": "C[C@@H](NC(=O)[C@@H](N)Cc1ccc(O)cc1)C(=O)N[C@@H](Cc1c[nH]c2ccccc12)C(=O)OCc1cc(C(F)(F)F)cc(C(F)(F)F)c1", "observedMeasurement": 1.69}
